Where do these numbers come from? They come from PubChem BioAssay (NCI).

Measured TGI, listed per entry for reference.
# System: EKVX NSCLC
# Experimental details: NCI tumour cell line growth inhibition, 48 h

Some solved entries appear below for comparison.
Task item: Given the molecule CN(C)C(=O)Oc1c(Br)cc(Br)cc1C(=O)OCc1ccccc1 , write its reported TGI.
Reply: > 100 µM

Task item: Given the molecule Cc1ccc(/C=C/C(=O)Oc2ccc(/C=C3\CCC/C(=C\c4ccc(OC(=O)/C=C/c5ccc(C)cc5)cc4)C3=O)cc2)cc1 , write its reported TGI.
Reply: > 100 µM

Task item: Given the molecule C[C@H](c1ccc(F)cc1CCCC(=O)O)N(c1cc(F)ccc1F)S(=O)(=O)c1ccc(Cl)cc1 , write its reported TGI.
Reply: > 100 µM

Task item: Given the molecule Cc1ccc(-c2nc3nc(-c4ccc(F)cc4)nc(N4CCNCC4)c3o2)cc1 , write its reported TGI.
Reply: 17.3 µM

Task item: Given the molecule O=C(NC(=Nc1ccccc1)SCSC(=Nc1ccccc1)NC(=O)c1ccco1)c1ccco1 , write its reported TGI.
Reply: > 100 µM

Task item: Given the molecule CCCCCCCCCCNCCSSCc1ccc(Cl)cc1 , write its reported TGI.
Reply: 5.14 µM

Task item: Given the molecule Cn1c(-c2ccc(-c3cc(-c4cccs4)c(-c4cccs4)n3C)cc2)cc(-c2cccs2)c1-c1cccs1 , write its reported TGI.
Reply: > 100 µM

Task item: Given the molecule N/C=N/S(=O)(=O)c1ccc(NC(=O)COC(=O)c2cccc3c(=O)c4ccccc4[nH]c23)cc1 , write its reported TGI.
Reply: > 100 µM

Note: attention shifts to another entry.
Task item: Given the molecule CCOP(=O)(CCCC(O)CNc1nc(N)nc(Cl)c1N=Nc1ccc(Cl)cc1)OCC (centres undefined) , write its reported TGI.
Reply: 15.5 µM

---

# System: SN12C renal
# Experimental details: NCI tumour cell line growth inhibition, 48 h
Parameter measured: TGI

Some solved entries appear below for comparison.
Task item: Given the compound O=Cc1cccc2ccc3ccccc3c12 , write its reported TGI.
Reply: 88.5 µM

Task item: Given the compound O[C@@H]1C[C@H](Cl)c2c(Cl)sc(Cl)c21 , write its reported TGI.
Reply: > 100 µM

Task item: Given the compound CC1(C)OC[C@H](C(=N)OCc2ccccc2)O1 , write its reported TGI.
Reply: > 100 µM

Further cases:
Task item: Given the compound CCCCCCC1N=C(N)N=C(N)N1c1cccc(Cl)c1 (stereo unspecified) , write its reported TGI.
Reply: 13.1 µM

Task item: Given the compound COC(C/C(=C/CO[Si](C(C)C)(C(C)C)C(C)C)C(=O)N(C(=O)OC(C)(C)C)c1ccccc1I)OC , write its reported TGI.
Reply: > 100 µM

Task item: Given the compound CSc1cc(Cl)c(C)cc1S(=O)(=O)NC(=O)NNc1ccc(F)cc1 , write its reported TGI.
Reply: > 100 µM

---

Measured TGI, listed per entry for reference.
# Tested on: HOP-18 NSCLC
# Experimental details: NCI tumour cell line growth inhibition, 48 h

Task item: Given the compound O=C1C=C(Nc2ccccc2C(=O)CC(=O)C(=O)Nc2ccc(Cl)cc2)c2ccccc2C1=O , write its reported TGI.
Reply: 8.72 µM

Task item: Given the compound c1ccc2c(c1)SC(=C1Sc3ccccc3S1)S2 , write its reported TGI.
Reply: > 100 µM

Task item: Given the compound N/C=N/S(=O)(=O)c1ccc(NC(=O)COC(=O)c2cccc3c(=O)c4ccccc4[nH]c23)cc1 , write its reported TGI.
Reply: > 100 µM

Further cases:
Task item: Given the compound CC(=O)C(=O)NC1/C=C(C)\C=C/C(O)C/C=C(C)\C=C/C(O)CC2OC(=O)C1(C)C(=O)C2C (stereo not given) , write its reported TGI.
Reply: > 100 µM

Task item: Given the compound CCc1ccccc1NC(=O)C(=O)C(C#N)c1ccccc1Cl (stereo not given) , write its reported TGI.
Reply: > 100 µM
